Each record here notes measured MIC.
System: Staphylococcus aureus
Test: Antibacterial activity against methicillin-resistant Staphylococcus aureus ATCC 43300 after 16 hrs by broth microdilution assay
Assay type: functional
Details: ATCC 43300, 16 h

- MOL: "CCNc1nccc(-c2c[nH]c3ccc(Br)cc23)n1.Cl"
  MIC: "50 µM"
- MOL: "Cl.Nc1nc(-c2c[nH]c3cc(Br)ccc23)c[nH]1"
  MIC: "25 µM"
- MOL: "Cl.Nc1nccc(-c2c[nH]c3ccc(I)cc23)n1"
  MIC: "200 µM"
- MOL: "Cl.Nc1nccc(-c2c[nH]c3cc(I)ccc23)n1"
  MIC: "> 200 µM"
- MOL: "CNc1nccc(-c2c[nH]c3ccc(Br)cc23)n1.Cl"
  MIC: "100 µM"
- MOL: "CCCn1cc(-c2ccnc(N)n2)c2cc(Br)ccc21.Cl"
  MIC: "100 µM"
- MOL: "CCCn1cc(-c2ccnc(N)n2)c2ccc(Br)cc21.Cl"
  MIC: "200 µM"
- MOL: "CCn1cc(-c2ccnc(N)n2)c2cc(Br)ccc21.Cl"
  MIC: "200 µM"
- MOL: "Cl.Nc1nccc(-c2c[nH]c3cc(Br)ccc23)n1"
  MIC: "> 200 µM"
- MOL: "Cl.Nc1nc(-c2c[nH]c3ccc(Br)cc23)c[nH]1"
  MIC: "25 µM"
- MOL: "CCn1cc(-c2ccnc(N)n2)c2ccc(Br)cc21.Cl"
  MIC: "200 µM"
- MOL: "CCCCn1cc(-c2ccnc(N)n2)c2cc(Br)ccc21.Cl"
  MIC: "50 µM"

* * *

System: Escherichia coli
Experiment: Potentiation of colistin-induced antimicrobial activity against Escherichia coli ATCC 25922 assessed as fold reduction in colistin MIC after 16 hrs by broth microdilution assay
Format: functional

- MOL: "Cl.Nc1nccc(-c2c[nH]c3cc(Br)ccc23)n1"
  TESTED_ON: "Escherichia coli"
  fold change (FC): 0
- MOL: "CCNc1nccc(-c2c[nH]c3ccc(Br)cc23)n1.Cl"
  TESTED_ON: "Escherichia coli"
  fold change (FC): 8
- MOL: "CCCCn1cc(-c2ccnc(N)n2)c2cc(Br)ccc21.Cl"
  TESTED_ON: "Escherichia coli"
  fold change (FC): 16
- MOL: "CC(C)Cn1cc(-c2ccnc(N)n2)c2cc(Br)ccc21.Cl"
  TESTED_ON: "Escherichia coli"
  fold change (FC): 16
- MOL: "CCCn1cc(-c2ccnc(N)n2)c2cc(Br)ccc21.Cl"
  TESTED_ON: "Escherichia coli"
  fold change (FC): 16

* * *

System: Klebsiella pneumoniae
Assay: Antibacterial activity against Klebsiella pneumoniae isolate C3 after 16 hrs by broth microdilution assay
Settings: in vivo
RECORDED_ENDPOINT: MIC

- MOL: "Cl.Nc1nccc(-c2c[nH]c3ccc(F)cc23)n1"
  REPORTED_VALUE: "> 200 µM"
- MOL: "CCNc1nccc(-c2cn(C)c3cc(Br)ccc23)n1.Cl"
  REPORTED_VALUE: "> 200 µM"
- MOL: "Cl.Cn1cc(-c2ccnc(N)n2)c2ccc(Br)cc21"
  REPORTED_VALUE: "> 200 µM"
- MOL: "CCCCn1cc(-c2ccnc(N)n2)c2ccc(Br)cc21.Cl"
  REPORTED_VALUE: "> 200 µM"
- MOL: "Cl.Cn1cc(-c2ccnc(N)n2)c2cc(Br)ccc21"
  REPORTED_VALUE: "> 200 µM"

* * *

Test system: Klebsiella pneumoniae
Test: Antibacterial activity against Klebsiella pneumoniae isolate C3 after 16 hrs by broth microdilution assay
Conditions: in vivo
RECORDED_ENDPOINT: MIC

- MOL: "CCCn1cc(-c2ccnc(N)n2)c2ccc(I)cc21.Cl"
  TESTED_ON: "Klebsiella pneumoniae"
  REPORTED_VALUE: "> 200 µM"
- MOL: "CCn1cc(-c2ccnc(N)n2)c2cc(Br)ccc21.Cl"
  TESTED_ON: "Klebsiella pneumoniae"
  REPORTED_VALUE: "> 200 µM"
- MOL: "Cc1ccc2[nH]cc(-c3ccnc(N)n3)c2c1.Cl"
  TESTED_ON: "Klebsiella pneumoniae"
  REPORTED_VALUE: "> 200 µM"
- MOL: "Cl.Nc1nccc(-c2c[nH]c3cc(I)ccc23)n1"
  TESTED_ON: "Klebsiella pneumoniae"
  REPORTED_VALUE: "> 200 µM"
- MOL: "CCCn1cc(-c2ccnc(N)n2)c2cc(Br)ccc21.Cl"
  TESTED_ON: "Klebsiella pneumoniae"
  REPORTED_VALUE: "> 200 µM"
- MOL: "Cl.Nc1nccc(-c2c[nH]c3ccc(I)cc23)n1"
  TESTED_ON: "Klebsiella pneumoniae"
  REPORTED_VALUE: "> 200 µM"

* * *

Tested on: Escherichia coli
Assay: Antibacterial activity against Escherichia coli ATCC 25922 after 16 hrs by broth microdilution assay
Assay type: organism-based

- MOL: "CCn1cc(-c2ccnc(N)n2)c2cc(Br)ccc21.Cl"
  MIC: "> 200 µM"
- MOL: "Cl.Nc1nccc(-c2c[nH]c3cc(I)ccc23)n1"
  MIC: "> 200 µM"
- MOL: "CCCCn1cc(-c2ccnc(N)n2)c2ccc(Br)cc21.Cl"
  MIC: "> 200 µM"
- MOL: "CCn1cc(-c2ccnc(N)n2)c2ccc(Br)cc21.Cl"
  MIC: "> 200 µM"
- MOL: "Cl.Nc1nccc(-c2c[nH]c3ccc(I)cc23)n1"
  MIC: "> 200 µM"
- MOL: "Cl.Nc1nccc(-c2c[nH]c3ccc(Cl)cc23)n1"
  MIC: "> 200 µM"
- MOL: "CCCCn1cc(-c2ccnc(N)n2)c2cc(Br)ccc21.Cl"
  MIC: "> 200 µM"
- MOL: "CCCCCn1cc(-c2ccnc(N)n2)c2cc(Br)ccc21.Cl"
  MIC: "> 200 µM"
- MOL: "CCCn1cc(-c2ccnc(N)n2)c2ccc(I)cc21.Cl"
  MIC: "> 200 µM"
- MOL: "CCCn1cc(-c2ccnc(N)n2)c2cc(Br)ccc21.Cl"
  MIC: "> 200 µM"
- MOL: "CC(C)Cn1cc(-c2ccnc(N)n2)c2cc(Br)ccc21.Cl"
  MIC: "> 200 µM"

* * *

System: Staphylococcus aureus
Experiment: Antibacterial activity against methicillin-resistant Staphylococcus aureus ATCC 43300 after 16 hrs by broth microdilution assay
Assay type: functional
Settings: ATCC 43300, 16 h
Readings of MIC for the listed compounds

- MOL: "Cl.Cn1cc(-c2ccnc(N)n2)c2ccc(Br)cc21"
  TESTED_ON: "Staphylococcus aureus"
  MIC / µM: 200
- MOL: "Brc1ccc2[nH]cc(-c3ccnc(NCc4ccccc4)n3)c2c1.Cl"
  TESTED_ON: "Staphylococcus aureus"
  MIC / µM: 6.25
- MOL: "CN(C)c1nccc(-c2c[nH]c3ccc(Br)cc23)n1.Cl"
  TESTED_ON: "Staphylococcus aureus"
  MIC / µM: 100
- MOL: "Nc1nccc(-c2c[nH]c3ccc(Br)cc23)n1"
  TESTED_ON: "Staphylococcus aureus"
  MIC / µM: 200
